Reported MIC values, E. coli.
// units = µg/mL; emit number, no label

C[N+](CCO)(CCO)CCCCCCCCSc1nnc(-c2ccc(C(F)(F)F)cc2)o1 [Compound 6b] : 25
[H]/N=C(\N/C(=N/[H])NCCCCCCNC(=N)NC(=N)Nc1ccc(Cl)cc1)Nc1ccc(Cl)cc1 [CA, chlorhexidine acetate, reference compound] : 6.25
C[N+](CCO)(CCO)CCCCCCCCCCSc1nnc(-c2ccc(F)cc2)o1 [Compound 5c] : 25
C[N+](CCO)(CCO)CCCCCCCCCCCCSc1nnc(-c2ccccc2)o1 [Compound 2, reference compound] : 25

Prompt: Given C[N+](CCO)(CCO)CCCCCCCCCCCCSc1nnc(-c2ccc(C(F)(F)F)cc2)o1.[Br-] [Compound 6d] , respond with its MIC.
Completion: 25

----------
assay: Haemolysis assay; assay type: cell-based; conditions: human red blood cells (erythrocyte suspension), 400.00 μg/mL, 1 h at 37 ℃, read-out: Haemolysis rate
Decide using hemolysis at 1 h, 400 μg/mL alone. Strictly below 70%: 1 (yes). Equal to or above 70%: 0 (no).

Here's what some known entries look like.
C[N+](CCO)(CCO)CCCCCCCCSc1nnc(-c2ccc(C(F)(F)F)cc2)o1 : 0 (no)
C[N+](CCO)(CCO)CCCCCCSc1nnc(-c2ccc(C(F)(F)F)cc2)o1 : 1 (yes)
C[N+](CCO)(CCO)CCCCCCCCCCCCSc1nnc(-c2ccccc2)o1 [Compound 2, reference compound] : 0 (no)
C[N+](CCO)(CCO)CCCCCCSc1nnc(-c2ccc(F)cc2)o1 : 1 (yes)
[H]/N=C(\N/C(=N/[H])NCCCCCCNC(=N)NC(=N)Nc1ccc(Cl)cc1)Nc1ccc(Cl)cc1 [CA, chlorhexidine acetate, reference compound] : 0 (no)
C[N+](CCO)(CCO)CCCCCCCCCCSc1nnc(-c2ccc(C(F)(F)F)cc2)o1.[Br-] : 0 (no)
C[N+](CCO)(CCO)CCCCCCCCCCCCSc1nc2ccccc2s1 [Compound 13d] : 0 (no)
C[N+](CCO)(CCO)CCCCCCCCCCCCSc1nnc(-c2ccc(F)cc2)o1 : 1 (yes)
C[N+](CCO)(CCO)CCCCCCCCCCCCSc1nnc(-c2ccc(C(F)(F)F)cc2)o1.[Br-] : 0 (no)

Consider the record given below.
Prompt: hemolysis at 1 h, 400 μg/mL strictly < 70% for this compound? C[N+](CCO)(CCO)CCCCCCCCCCSc1nnc(-c2ccc(F)cc2)o1
Completion: 1 (yes)

----------
assay: Haemolysis assay; assay type: cell-based; conditions: human red blood cells (erythrocyte suspension), 25.00 μg/mL, 1 h at 37 ℃, read-out: Haemolysis rate
# reported hemolysis at 1 h, 25 μg/mL; entries follow
// return numeric value only (unit: %, not printed)

# example entries with known answers
C[N+](CCO)(CCO)CCCCCCCCCCCCSc1nc2ccccc2s1 [Compound 13d] : 3.98
C[N+](CCO)(CCO)CCCCCCCCSc1nnc(-c2ccc(C(F)(F)F)cc2)o1 : 0.43
C[N+](CCO)(CCO)CCCCCCCCCCCCSc1nnc(-c2ccccc2)o1 [Compound 2, reference compound] : 0.93

Prompt: Recall and state the measured hemolysis at 1 h, 25 μg/mL for C[N+](CCO)(CCO)CCCCCCCCCCSc1nnc(-c2ccc(F)cc2)o1 .
Completion: 2.31

----------
experiment: Haemolysis assay; assay type: cell-based; details: human red blood cells (erythrocyte suspension), 12.50 μg/mL, 1 h at 37 ℃, read-out: Haemolysis rate
Tag: satisfied if measured hemolysis at 1 h, 12.5 μg/mL is not below 0.8%, not satisfied if it is.

Prompt: API: above_or_equal(metric=hemolysis at 1 h, 12.5 μg/mL, cutoff=0.8%) for item C[N+](CCO)(CCO)CCCCCCSc1nnc(-c2ccc(F)cc2)o1
Completion: not satisfied

Prompt: Does C[N+](CCO)(CCO)CCCCCCCCCCCCSc1nnc(-c2ccc(F)cc2)o1 have a reported hemolysis at 1 h, 12.5 μg/mL of at least 0.8%?
Completion: satisfied

Prompt: Threshold query (hemolysis at 1 h, 12.5 μg/mL >= 0.8%) on C[N+](CCO)(CCO)CCCCCCCCCCSc1nnc(-c2ccc(C(F)(F)F)cc2)o1.[Br-]
Completion: not satisfied

Prompt: Determine whether measured hemolysis at 1 h, 12.5 μg/mL meets or exceeds 0.8% for [H]/N=C(\N/C(=N/[H])NCCCCCCNC(=N)NC(=N)Nc1ccc(Cl)cc1)Nc1ccc(Cl)cc1 [CA, chlorhexidine acetate, reference compound]
Completion: satisfied

Prompt: Does C[N+](CCO)(CCO)CCCCCCCCCCCCSc1nc2ccccc2s1 [Compound 13d] have a reported hemolysis at 1 h, 12.5 μg/mL of at least 0.8%?
Completion: satisfied

Prompt: Kindly determine if hemolysis at 1 h, 12.5 μg/mL recorded for C[N+](CCO)(CCO)CCCCCCCCCCCCSc1nnc(-c2ccccc2)o1 [Compound 2, reference compound] is above or exactly 0.8%.
Completion: not satisfied

Prompt: Evaluate C[N+](CCO)(CCO)CCCCCCCCSc1nnc(-c2ccc(C(F)(F)F)cc2)o1 : hemolysis at 1 h, 12.5 μg/mL at minimum 0.8%?
Completion: not satisfied

Prompt: Could you please find out whether C[N+](CCO)(CCO)CCCCCCCCCCCCSc1nnc(-c2ccc(C(F)(F)F)cc2)o1.[Br-] has hemolysis at 1 h, 12.5 μg/mL that meets 0.8% or exceeds it?
Completion: satisfied

Prompt: Quick check, hemolysis at 1 h, 12.5 μg/mL >= 0.8%? C[N+](CCO)(CCO)CCCCCCCCCCSc1nnc(-c2ccc(F)cc2)o1
Completion: not satisfied

Prompt: Is hemolysis at 1 h, 12.5 μg/mL at least 0.8%? Consider C[N+](CCO)(CCO)CCCCCCSc1nnc(-c2ccc(C(F)(F)F)cc2)o1
Completion: not satisfied
